# experimental-system: T1, mutant human CD20 #6 (Y77F, N166D) (human, UniProt P11836 1-297)
# T1 construct: Stably expressed on MG87 cells
# T1 chain: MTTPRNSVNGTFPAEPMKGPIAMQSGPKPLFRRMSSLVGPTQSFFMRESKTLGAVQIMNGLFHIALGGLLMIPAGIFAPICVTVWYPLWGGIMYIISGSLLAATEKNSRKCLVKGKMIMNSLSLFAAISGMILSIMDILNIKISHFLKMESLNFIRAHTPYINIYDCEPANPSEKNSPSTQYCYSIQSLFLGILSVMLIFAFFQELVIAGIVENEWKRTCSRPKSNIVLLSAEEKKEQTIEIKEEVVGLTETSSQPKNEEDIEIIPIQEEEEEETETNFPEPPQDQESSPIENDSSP
# protocol: FACS, mutant-hCD20 MG87 cells; 100%=best antibody
attribute-measured: Percent of Binding to Mutant Human CD20 (%)
I only need the number, in %, no unit after it.

Look over these answered cases.
binder="9C11-14 (antibody, V domains shown, Fully human IgG, constant region not specified; also called 9C11-14N) VH: QVQLVESGGDSVKPGGSLRLSCAASGFTFSDSYMTWIRQAPGKGLEWVSFISSSGSTIYYADSVKGRFTISRDNVKKSLYLQMNRLRAEDTAVYYCAREEPGNYVYYGMDVWGQGTTVTVSS VL: EIVVTQSPATLSLSPGERATLSCRTSQTTTSYLAWYRQKPGQAPRLLIYDASNRAAGIPARFSGSGSGTDFTLTINSLEPEDFAVYYCQLRTNWITFGQGTRLEIK" attribute_measured="Percent of Binding to Mutant Human CD20" observed=87
binder="3B9-10 (antibody, V domains shown, Fully human IgG, constant region not specified; also called 3B9-10N) VH: EVQLVESGGGLVQPGRSLRLSCVASGFTFNDYAMHWVRQAPGKGLEWVSVISWNSDSIGYADSVKGRFTISRDNAKNSLYLQMHSLRAEDTALYYCAKDNHYGSGSYYYYQYGMDVWGQGTTVTVSS VL: EIVMTQSPATLSVSPGERATLSCRASQSVSSNLAWYQQKPGQAPRLLIYGTSTRATGIPARFSGSGSGTEFTLTISSLQSEDFAVYYCQQYNNWPLTFGGGTKVEIK" attribute_measured="Percent of Binding to Mutant Human CD20" observed=1

Okay, now this binder:
Req: Endpoint output: Percent of Binding to Mutant Human CD20 of 10E3-17 (antibody, V domains shown, Fully human IgG, constant region not specified; also called 10E3-17N) VH: EVQLVESGGGLVQPGRSLRLSCAASGFTFRDYAMHWVRQVPGKGLEWVSGISWNRGTIGYADSVKGRFTISRDNAKNSLFLQMNSLRADDTALYYCAKDHYYGSGSPYGMDVWGQGTTVTVSS VL: EIVLTQSPATLALSPGERATLSCRASQSVSKYLAWYQQKPGQAPRLLIYDASKRVTGIPGRLSGSGSGTDFTLTISSLEPEDFALYYCQQSSNWPITFGQGTRVEIK . Value?
Resp: 1
